- MEASUREMENT TARGET: Renin (Homo sapiens, UniProt P00797)
- Sequence (P00797 whole entry): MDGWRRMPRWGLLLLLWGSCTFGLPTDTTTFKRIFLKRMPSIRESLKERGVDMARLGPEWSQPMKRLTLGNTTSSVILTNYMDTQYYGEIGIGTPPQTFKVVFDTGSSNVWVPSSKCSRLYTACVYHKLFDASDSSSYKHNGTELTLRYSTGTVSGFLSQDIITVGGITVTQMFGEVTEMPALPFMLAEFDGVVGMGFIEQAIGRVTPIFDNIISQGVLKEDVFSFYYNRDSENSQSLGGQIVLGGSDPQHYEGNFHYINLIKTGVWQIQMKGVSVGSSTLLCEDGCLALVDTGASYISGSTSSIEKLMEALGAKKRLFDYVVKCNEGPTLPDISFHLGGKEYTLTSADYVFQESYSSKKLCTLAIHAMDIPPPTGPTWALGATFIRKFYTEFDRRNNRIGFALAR
- METHOD DESCRIPTION: In vitro potency against purified renin at a pH of 6.0.
Below: a set of entries, each annotated with reported IC50.
Answer with a number only, understood to be in nM.

Would you please look over these solved cases?
COMPOUND	REPORTED MEASUREMENT
CCCC[C@H](O[C@@H](Cc1ccccc1)C(=O)N1CCC(CCOC)CC1)C(=O)N[C@@H](CC1CCCCC1)[C@@H](O)[C@@H](O)CC(C)C	18
CCCC[C@H](O[C@@H](Cc1ccccc1)C(=O)N1CCC(OCSC)CC1)C(=O)N[C@@H](CC1CCCCC1)[C@@H](O)[C@@H](O)CC(C)C	130
CCCCNC(=O)[C@@H](C[C@H](O)[C@H](CC1CCCCC1)NC(=O)[C@H](CCCC)N[C@@H](Cc1ccccc1)C(=O)N1CCC(OCOC)CC1)C(C)C	0.9
CCCC[C@H](O[C@@H](Cc1ccccc1)C(=O)N1CCC(OC[S+](C)[O-])CC1)C(=O)N[C@@H](CC1CCCCC1)[C@@H](O)[C@@H](O)CC(C)C (some centres undefined)	770

Which IC50 reading was recorded for the compound CCCCNC(=O)[C@@H](C[C@H](O)[C@H](CC1CCCCC1)NC(=O)[C@H](CCCC)O[C@@H](Cc1ccccc1)C(=O)N1CCC(OCOC)CC1)C(C)C ?
1.2

Which IC50 reading was recorded for the compound CC(C)C[C@H](O)[C@H](O)[C@H](CC1CCCCC1)NC(=O)[C@H](C)O[C@@H](Cc1ccccc1)C(=O)N1CCOCC1 ?
45
